- System: THP-1
- assay.protocol: Effect of pyrrolidine derivatives on production of eicosanoids from THP-1 cells stimulated with A-23187 using cellular assay on PGE-2, LTC-4
- Format: functional, cell-based
- experimental.setup: Homo sapiens
endpoint: IC50 (nM)

chemical.string: CC(C)CN(Cc1ccccc1-c1ccccc1)[C@@H]1C[C@@H](CNC(=O)/C=C/c2ccc(/C=C3\SC(=O)NC3=O)cc2)N(C(=O)c2ccccc2C(=O)c2ccc(F)cc2F)C1
modifier.sign: =
observed.measurement: 13
--
chemical.string: COc1ccc2c(c1)c(CC(=O)O)c(C)n2C(=O)c1ccc(Cl)cc1
modifier.sign: >
observed.measurement: 10000
--
chemical.string: O=C1NC(=O)/C(=C/c2ccc(C(=O)NC[C@@H]3C[C@@H](OCc4ccccc4-c4ccccc4)CN3C(=O)c3ccccc3C(=O)c3ccc(F)cc3)cc2)S1
modifier.sign: =
observed.measurement: 260

====

- tested.target: Cytosolic phospholipase A2 (Homo sapiens)
- Sequence (P47712 whole entry): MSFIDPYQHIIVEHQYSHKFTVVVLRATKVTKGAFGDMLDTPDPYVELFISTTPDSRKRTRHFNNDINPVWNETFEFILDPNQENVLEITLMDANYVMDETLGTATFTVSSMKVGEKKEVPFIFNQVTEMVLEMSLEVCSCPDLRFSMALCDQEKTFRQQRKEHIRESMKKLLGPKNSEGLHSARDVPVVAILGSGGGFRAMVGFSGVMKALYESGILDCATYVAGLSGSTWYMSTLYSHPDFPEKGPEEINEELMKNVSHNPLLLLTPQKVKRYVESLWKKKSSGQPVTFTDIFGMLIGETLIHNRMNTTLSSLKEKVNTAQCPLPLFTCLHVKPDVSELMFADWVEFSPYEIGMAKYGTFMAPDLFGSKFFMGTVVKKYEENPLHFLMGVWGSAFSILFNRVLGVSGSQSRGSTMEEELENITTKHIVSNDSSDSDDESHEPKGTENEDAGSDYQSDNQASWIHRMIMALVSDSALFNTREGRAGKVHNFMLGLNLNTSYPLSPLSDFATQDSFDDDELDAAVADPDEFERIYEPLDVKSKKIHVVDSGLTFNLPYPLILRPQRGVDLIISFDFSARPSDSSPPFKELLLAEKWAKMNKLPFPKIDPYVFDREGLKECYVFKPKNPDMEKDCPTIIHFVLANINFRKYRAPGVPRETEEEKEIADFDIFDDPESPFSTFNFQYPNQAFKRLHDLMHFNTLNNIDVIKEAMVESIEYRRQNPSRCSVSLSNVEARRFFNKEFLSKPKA
endpoint: IC50 (nM)

chemical.string: O=C1NC(=S)S/C1=C\c1ccc(C(=O)NC[C@@H]2C[C@@H](Oc3ccccc3-c3ccccc3)CN2C(=O)c2ccccc2C(=O)c2ccc(F)cc2)cc1
observed.measurement: 83
--
chemical.string: O=C1NC(=S)S/C1=C\c1ccc(C(=O)NC[C@@H]2C[C@@H](OCc3ccccc3-c3ccccc3)CN2C(=O)c2ccccc2C(=O)c2ccc(F)cc2)cc1
observed.measurement: 90
--
chemical.string: CC(C)Cc1cccc(Br)c1O[C@@H]1C[C@@H](CNC(=O)c2ccc(/C=C3\SC(=O)NC3=O)cc2)N(C(=O)c2ccccc2C(=O)c2ccc(F)cc2F)C1
observed.measurement: 22
--
chemical.string: CC(C)Cc1cccc(-c2ccccc2C(C)C)c1O[C@@H]1C[C@@H](CNC(=O)c2ccc(/C=C3\SC(=O)NC3=O)cc2)N(C(=O)c2ccccc2C(=O)c2ccc(F)cc2F)C1
observed.measurement: 2.1

====

- Test system: THP-1
- assay.protocol: Effect of pyrrolidine derivatives on production of eicosanoids from THP-1 cells stimulated with A-23187 using cellular assay on LTC-4
- Format: functional, cell-based
- experimental.setup: Homo sapiens
pIC50: −log10 of the molar value.

chemical.string: O=C1NC(=O)/C(=C/c2ccc(C(=O)NC[C@@H]3C[C@@H](OCc4ccccc4-c4ccccc4)CN3C(=O)c3ccccc3C(=O)c3ccccc3)cc2)S1
pIC50: 6.43

Cited source: ChEMBL document CHEMBL1132972
